- method: Chemical stability of compound assessed as half life in PBS at pH 7.3 by RP18-HPLC analysis
- Assay type: physicochemical
endpoint name: half-life (min)
Record the value in min, omitting the unit from your answer.

Sample records with half-life:
compound=CCCCCCCCC(=O)Oc1ccc(COP(=O)(OCc2ccc(OC(=O)CCCCCCCC)cc2)OP(=O)(O)OP(=O)(O)OC[C@@H]2C=C[C@H](n3cc(C)c(=O)[nH]c3=O)O2)cc1 reading=3120
compound="CCCCCCCCCCCCCCCCCC(=O)Oc1ccc(COP(=O)(OCc2ccc(OC(=O)CCCC)cc2)OP(=O)(O)OP(=O)(O)OC[C@@H]2C=C[C@H](n3cc(C)c(=O)[nH]c3=O)O2)cc1 (stereo partly drawn)" reading=3000

Then there is this compound:
Problem: Find the recorded half-life belonging to CCCCCCCCCC(=O)c1ccc(COP(=O)(OCc2ccc(OC(=O)CCCC)cc2)OP(=O)(O)OP(=O)(O)OC[C@@H]2C=C[C@H](n3cc(C)c(=O)[nH]c3=O)O2)cc1 (stereo partly drawn) and report it.
Solution: 2580
